- Test system: 935938-334-R-J1-PDC complex spheroid viability
- assay protocol: Anticancer human tumor 935938-334-R-J1-PDC patient-derived small intestine adenocarcinoma cell line growth inhibition [POLQ]
- condition context: second compound 1 µM; first compound 0.316 µM; stronger effect = lower value
measured parameter: viability, T/C (%)
Dear colleague, please return just the value in %, with no unit written.

Observed viability, T/C on 935938-334-R-J1-PDC complex spheroid viability for CNCc1ccc(-c2[nH]c3cc(F)cc4c3c2CCNC4=O)cc1 + Cc1cccc(N(C)C(=O)C2C(O)CCN2c2nc(C)cc(C(F)(F)F)c2C#N)c1 , please.
88.5

Observed viability, T/C on 935938-334-R-J1-PDC complex spheroid viability for COc1cccc2c1C(=O)c1c(O)c3c(c(O)c1C2=O)CC(O)(C(=O)CO)CC3OC1CC(N)C(O)C(C)O1 (centres undefined) + Cc1cccc(N(C)C(=O)C2C(O)CCN2c2nc(C)cc(C(F)(F)F)c2C#N)c1 , please.
31.4

Observed viability, T/C on 935938-334-R-J1-PDC complex spheroid viability for CC1COCCN1c1cc(-c2ccnn2C)c2ccnc(-c3ccn[nH]3)c2n1 (centres undefined) + Cc1cccc(N(C)C(=O)C2C(O)CCN2c2nc(C)cc(C(F)(F)F)c2C#N)c1 , please.
29.8

// next entry
Observed viability, T/C on 935938-334-R-J1-PDC complex spheroid viability for CCc1c2c(nc3ccc(O)cc13)-c1cc3c(c(=O)n1C2)COC(=O)[C@]3(O)CC + Nc1ccc(C#CCN(C(=O)Cc2ncc(C(F)(F)F)cc2C(F)(F)F)c2ccc(F)cc2)nn1 , please.
34.4

---

- System: 935938-334-R-J1-PDC complex spheroid viability
- assay protocol: Anticancer human tumor 935938-334-R-J1-PDC cell line growth inhibition [POLQ];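 note: spheroids exposed to drugs for seven days before viability read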
- condition context: curve of first compound; second compound 0.316 µM
measured parameter: IC50 (nM)
Dear colleague, please return just the value in nM, with no unit written.

Please give the measured IC50 for this compound: CC1COCCN1c1cc(C2(O)CC3CCC(C2)O3)c2cnn(-c3ccn[nH]3)c2n1 (stereo not drawn) + Nc1ccc(C#CCN(C(=O)Cc2ncc(C(F)(F)F)cc2C(F)(F)F)c2ccc(F)cc2)nn1
102

// next entry
Please give the measured IC50 for this compound: CCCS(=O)(=O)Nc1ccc(F)c(C(=O)c2c[nH]c3ncc(-c4ccc(Cl)cc4)cc23)c1F + COC1C(OC(N)=O)C(O)C(Oc2ccc3c(O)c(NC(=O)c4ccc(O)c(CC=C(C)C)c4)c(=O)oc3c2C)OC1(C)C
9270

---

- Tested on: 935938-334-R-J1-PDC complex spheroid viability
- assay protocol: Anticancer human tumor 935938-334-R-J1-PDC cell line growth inhibition [POLQ];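 note: spheroids exposed to drugs for seven days before viability read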;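 for viability, T/C: 100% = DMSO vehicle control wells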
- condition context: second compound 0.1 µM; first compound 10 µM; stronger effect = lower value
Entries and their measured viability, T/C follow.
Dear colleague, please return just the value in %, with no unit written.

Sample answers from the record:
Please give the measured viability, T/C for this compound: COc1cc(C2c3cc4c(cc3C(OC3OC5COC(C)OC5C(O)C3O)C3COC(=O)C23)OCO4)cc(OC)c1O (stereo not given) + Nc1ccc(C#CCN(C(=O)Cc2ncc(C(F)(F)F)cc2C(F)(F)F)c2ccc(F)cc2)nn1
29.9

Please give the measured viability, T/C for this compound: Nc1ccn(C2OC(CO)C(O)C2(F)F)c(=O)n1 (stereo not given) + COC1C(OC(N)=O)C(O)C(Oc2ccc3c(O)c(NC(=O)c4ccc(O)c(CC=C(C)C)c4)c(=O)oc3c2C)OC1(C)C
14.5

Please give the measured viability, T/C for this compound: O=C(Nc1ccc(O)c(NS(=O)(=O)c2ccc(F)cc2)c1)c1ccc(-c2ccccc2)cc1 + COC1C(OC(N)=O)C(O)C(Oc2ccc3c(O)c(NC(=O)c4ccc(O)c(CC=C(C)C)c4)c(=O)oc3c2C)OC1(C)C
72.4

Please give the measured viability, T/C for this compound: C=CC(=O)N1CCN(c2nc(=O)n(-c3c(C)ccnc3C(C)C)c3nc(-c4c(O)cccc4F)c(F)cc23)C(C)C1 (stereo not given) + Nc1ccc(C#CCN(C(=O)Cc2ncc(C(F)(F)F)cc2C(F)(F)F)c2ccc(F)cc2)nn1
107

***
Please give the measured viability, T/C for this compound: CC1COCCN1c1cc(C2(O)CC3CCC(C2)O3)c2cnn(-c3ccn[nH]3)c2n1 (stereo not given) + Cc1cccc(N(C)C(=O)C2C(O)CCN2c2nc(C)cc(C(F)(F)F)c2C#N)c1
9.91
